Collected PLATELET COUNT values appear next to each entry.
# Species on record: Rattus norvegicus
# MEASUREMENT NOTES: DrugMatrix - Regimen: Daily Repeat
# Format: toxicity, organism-based, Sprague-Dawley
# Design: regimen Daily Repeat, gender Male, age 6-8 weeks
# RUN PARAMETERS: in vivo, po, 0 mg/kg, 72 h, tissue Blood, route oral GAVAGE, dose level Control, time 3 day, vehicle 100 % WATER
Provide only the numeric value, understood in x10E3/uL.

The following molecules have reported results that may help.
{"STRUCTURE STRING": "CNNCc1ccc(C(=O)NC(C)C)cc1", "PLATELET COUNT (x10E3/uL)": 1124.83}
{"STRUCTURE STRING": "N[C@@H](Cc1ccc(O)c(O)c1)C(=O)O", "PLATELET COUNT (x10E3/uL)": 1181.33}
{"STRUCTURE STRING": "C[C@](N)(Cc1ccc(O)c(O)c1)C(=O)O", "PLATELET COUNT (x10E3/uL)": 1026.17}
{"STRUCTURE STRING": "Nc1c2c(nc3ccccc13)CCCC2", "PLATELET COUNT (x10E3/uL)": 911.5}

Now look at this entry.
Task: PLATELET COUNT for NCCCCCC(=O)O ?
Result: 1225.5

###

# Species on record: Rattus norvegicus
# MEASUREMENT NOTES: DrugMatrix - Regimen: Daily Repeat
# Format: toxicity, organism-based, Sprague-Dawley
# Design: regimen Daily Repeat, gender Male, age 6-8 weeks
# RUN PARAMETERS: in vivo, po, 0 mg/kg, 120 h, tissue Plasma, route oral GAVAGE, dose level Control, time 5 day, […]
REPORTED ENDPOINT: LIPASE
Give the number first and the unit second.

{"COMPOUND": "O=C(O)CCCc1ccc(N(CCCl)CCCl)cc1", "REPORTED ENDPOINT": "LIPASE", "RECORDED RESULT": "6.83 u/L"}
{"COMPOUND": "CC(C)C(=O)Nc1ccc([N+](=O)[O-])c(C(F)(F)F)c1 [FLUTAMIDE]", "REPORTED ENDPOINT": "LIPASE", "RECORDED RESULT": "10 u/L"}
{"COMPOUND": "C[C@@H]1CN(c2c(F)c(N)c3c(=O)c(C(=O)O)cn(C4CC4)c3c2F)C[C@H](C)N1", "REPORTED ENDPOINT": "LIPASE", "RECORDED RESULT": "14.83 u/L"}
{"COMPOUND": "Cc1ccc(-c2cc(C(F)(F)F)nn2-c2ccc(S(N)(=O)=O)cc2)cc1", "REPORTED ENDPOINT": "LIPASE", "RECORDED RESULT": "6.83 u/L"}
{"COMPOUND": "Cc1noc(NS(=O)(=O)c2ccc(N)cc2)c1C", "REPORTED ENDPOINT": "LIPASE", "RECORDED RESULT": "10.83 u/L"}

Now look at this entry.
Task: LIPASE for CCC(C)n1ncn(-c2ccc(N3CCN(c4ccc(OCC5COC(Cn6cncn6)(c6ccc(Cl)cc6Cl)O5)cc4)CC3)cc2)c1=O (stereo unspecified) ?
Result: 6.83 u/L

###

# Species on record: Rattus norvegicus
# Type: toxicity, organism-based, Sprague-Dawley
# RUN PARAMETERS: in vivo, po, 2000 mg/kg, 24 h, tissue Blood, route oral GAVAGE, dose level High, time 1 day, vehicle 100 % WATER
# Description: DrugMatrix - Regimen: Single
REPORTED ENDPOINT: ABSOLUTE MONOCYTE (cells/µL)
Provide only the numeric value, understood in cells/µL.

Task: ABSOLUTE MONOCYTE for CCOC(=O)N1CCC(=C2c3ccc(Cl)cc3CCc3cccnc32)CC1 ?
Result: 100

###

Collected MEAN CORPUSCULAR HEMOGLOBIN CONCENTRATION values appear next to each entry.
# Organism: Rattus norvegicus
# MEASUREMENT NOTES: DrugMatrix - Regimen: Daily Repeat
# Format: toxicity, organism-based, Sprague-Dawley
# Design: regimen Daily Repeat, gender Male, age 6-8 weeks
# RUN PARAMETERS: in vivo, po, 0 mg/kg, 120 h, tissue Blood, route oral GAVAGE, dose level Control, time 5 day, vehicle 100 % WATER
Provide only the numeric value, understood in G/DL.

The following compounds have reported results that may help.
{"COMPOUND": "c1ccc([C@H]2CN3CCSC3=N2)cc1", "RECORDED RESULT": 38.43}
{"COMPOUND": "C=CCC1(C(C)CCC)C(=O)NC(=O)NC1=O (centres undefined)", "RECORDED RESULT": 39.33}
{"COMPOUND": "Cn1cc[nH]c1=S", "RECORDED RESULT": 38.82}

Now look at this entry.
Task: MEAN CORPUSCULAR HEMOGLOBIN CONCENTRATION for C[C@H](CS)C(=O)N1CCC[C@H]1C(=O)O ?
Result: 39.88

###

# Species: Rattus norvegicus
# MEASUREMENT NOTES: DrugMatrix - Regimen: Daily Repeat
# Assay type: toxicity, organism-based, Sprague-Dawley
# Parameters: regimen Daily Repeat, gender Male, age 6-8 weeks
# RUN PARAMETERS: in vivo, po, 0 mg/kg, 120 h, tissue Plasma, route oral GAVAGE, dose level Control, time 5 day, vehicle 100 % WATER
REPORTED ENDPOINT: ALKALINE PHOSPHATASE (u/L)
Provide only the numeric value, understood in u/L.

The following compounds have reported results that may help.
{"COMPOUND": "C=CCC1(C(C)CCC)C(=O)NC(=O)NC1=O (centres undefined)", "ALKALINE PHOSPHATASE / u/L": 343.17}
{"COMPOUND": "CN(C)CCCN1c2ccccc2Sc2ccc(Cl)cc21", "ALKALINE PHOSPHATASE / u/L": 343.67}
{"COMPOUND": "Nc1c2c(nc3ccccc13)CCCC2", "ALKALINE PHOSPHATASE / u/L": 393}

Task: ALKALINE PHOSPHATASE for COc1cc2nc(N3CCN(C(=O)C4COc5ccccc5O4)CC3)nc(N)c2cc1OC (centres undefined) ?
Result: 367.5

Task: ALKALINE PHOSPHATASE for Cc1onc(-c2ccccc2Cl)c1C(=O)N[C@@H]1C(=O)N2[C@@H]1SC(C)(C)[C@@H]2C(=O)O ?
Result: 380.17

Task: ALKALINE PHOSPHATASE for CNNCc1ccc(C(=O)NC(C)C)cc1 ?
Result: 336.83

Task: ALKALINE PHOSPHATASE for C[C@H](CS)C(=O)N1CCC[C@H]1C(=O)O ?
Result: 391.5

Task: ALKALINE PHOSPHATASE for C[C@](N)(Cc1ccc(O)c(O)c1)C(=O)O ?
Result: 339.67

Task: ALKALINE PHOSPHATASE for C[C@H]1c2cccc(O)c2C(=O)C2=C(O)[C@]3(O)C(=O)C(C(N)=O)=C(O)[C@@H](N(C)C)[C@@H]3[C@@H](O)[C@@H]21.O ?
Result: 367.5

###

# Organism: Rattus norvegicus
# MEASUREMENT NOTES: DrugMatrix - Regimen: Daily Repeat
# Assay type: toxicity, organism-based, Sprague-Dawley
# Design: regimen Daily Repeat, gender Male, age 6-8 weeks
# RUN PARAMETERS: in vivo, po, 0 mg/kg, 72 h, tissue Blood, route oral GAVAGE, dose level Control, time 3 day, vehicle 100 % WATER
Collected MEAN CORPUSCULAR HEMOGLOBIN CONCENTRATION values appear next to each entry.
Give the number first and the unit second.

{"MOLECULE": "C[C@](N)(Cc1ccc(O)c(O)c1)C(=O)O [METHYLDOPA]", "RECORDED RESULT": "37.57 G/DL"}
{"MOLECULE": "CC(O)CO (stereo not given) [PROPYLENE GLYCOL]", "RECORDED RESULT": "38.65 G/DL"}
{"MOLECULE": "Cc1onc(-c2ccccc2Cl)c1C(=O)N[C@@H]1C(=O)N2[C@@H]1SC(C)(C)[C@@H]2C(=O)O [CLOXACILLIN]", "RECORDED RESULT": "38.65 G/DL"}

Task: MEAN CORPUSCULAR HEMOGLOBIN CONCENTRATION for C[C@H](CS)C(=O)N1CCC[C@H]1C(=O)O [CAPTOPRIL] ?
Result: 40.08 G/DL

Task: MEAN CORPUSCULAR HEMOGLOBIN CONCENTRATION for C=CCC1(C(C)CCC)C(=O)NC(=O)NC1=O (stereo not given) [SECOBARBITAL] ?
Result: 39.13 G/DL

###

# Species on record: Rattus norvegicus
# MEASUREMENT NOTES: DrugMatrix - Regimen: Daily Repeat
# Type: toxicity, organism-based, Sprague-Dawley
# Design: regimen Daily Repeat, gender Male, age 6-8 weeks
# RUN PARAMETERS: in vivo, iv, 0 mg/kg, 120 h, tissue Blood, dose level Control, time 5 day, vehicle 100 % SALINE
Starred links: 1 amine or outer side, 2 acyl side, 3 side chain; linkers in the order of their positions; H or OH if unused. Positions of bridges follow the written chain, without caps; N, C: chain ends. Non-standard residues stand in square brackets, D forms with d. Residues, ends and D or L forms follow the SMILES beside them. Chains are numbered I, II in the order given. Actinocin(9to1) = Cc1c2oc3c(C)ccc(C(=O)[*:1])c3nc-2c(C(=O)[*:2])c(N)c1=O; NMeV = CN[C@H](C(=O)O)C(C)C; Sar = CNCC(=O)O
REPORTED ENDPOINT: ABSOLUTE SEGMENTED NEUTROPHIL

Task: ABSOLUTE SEGMENTED NEUTROPHIL for Cc1c2oc3c(C)ccc(C(=O)N[C@@H]4C(=O)N[C@H](C(C)C)C(=O)N5CCC[C@H]5C(=O)N(C)CC(=O)N(C)[C@@H](C(C)C)C(=O)O[C@@H]4C)c3nc-2c(C(=O)N[C@@H]2C(=O)N[C@H](C(C)C)C(=O)N3CCC[C@H]3C(=O)N(C)CC(=O)N(C)[C@@H](C(C)C)C(=O)O[C@@H]2C)c(N)c1=O [DACTINOMYCIN] (I: T[dV]P[Sar][NMeV] / II: T[dV]P[Sar][NMeV]; ester I:1-I:C, II:1-II:C; linker I:N-II:N via Actinocin(9to1)) ?
Result: 1446.17 CELLS/uL
